Assay: Oral exposure in cynomolgus monkeys, compound alone or with excipient in capsules; plasma by LC-MS/MS
Type: in vivo
Conditions: male, cynomolgus monkey, plasma, po, 50 mg, enteric capsule, with 227.5 mg sodium caprate, fasted
value_kind: AUC(0-inf) (ng·h/mL)
Your answer is read as ng·h/mL, so omit the unit and give the number.

Measured AUC(0-inf), C[C@H](Nc1cc(Cl)nc2c1cnn2[C@@H]1O[C@H](COP(=O)(O)CP(=O)(O)O)[C@@H](O)[C@H]1O)c1ccccc1F [Ia (•3Na)] : 20300

* * *

Test: Oral exposure in cynomolgus monkeys, compound alone or with excipient in capsules; plasma by LC-MS/MS
Format: in vivo
Conditions: male, cynomolgus monkey, plasma, po, 50 mg, gelatin capsule, with 195 mg sodium citrate, 6 mg SDS, fasted
value_kind: AUC(0-inf) (µg·h/mL)
Answer format: numeric, µg·h/mL implied, no suffix.

AUC(0-inf) reported for this compound `C[C@H](Nc1nc(Cl)nc2c1cnn2[C@@H]1O[C@H](COP(=O)(O)CP(=O)(O)O)[C@@H](O)[C@H]1O)c1ccccc1` : 151

* * *

Test: Oral exposure in cynomolgus monkeys, compound alone or with excipient in capsules; plasma by LC-MS/MS
Format: in vivo
Settings: male, cynomolgus monkey, plasma, po, 10 mg, oral, enteric capsule, dose 10 mg, with 195 mg sodium citrate, 3 mg SDS, fasted; read-out: Cmax
value_kind: Cmax (ng/mL)
Reply with just the number (in ng/mL).

molecule `C[C@H](Nc1nc(Cl)nc2c1cnn2[C@@H]1O[C@H](COP(=O)(O)CP(=O)(O)O)[C@@H](O)[C@H]1O)c1ccccc1` , Cmax observed: 997

* * *

Test: Oral exposure in cynomolgus monkeys, compound alone or with excipient in capsules; plasma by LC-MS/MS
Format: in vivo
Details: male, cynomolgus monkey, plasma, po, 10 mg, oral, enteric capsule, dose 10 mg, neat, fasted; read-out: Cmax
value_kind: Cmax (ng/mL)
Give a bare numeral; the unit ng/mL is implied.

// recorded Cmax for `C[C@H](Nc1nc(Cl)nc2c1cnn2[C@@H]1O[C@H](COP(=O)(O)CP(=O)(O)O)[C@@H](O)[C@H]1O)c1ccccc1` : 161

* * *

Experiment: Oral exposure in cynomolgus monkeys, compound alone or with excipient in capsules; plasma by LC-MS/MS
Assay type: in vivo
Details: male, cynomolgus monkey, plasma, po, 50 mg, enteric capsule, with 400 mg sodium phosphate, fasted
value_kind: AUC(0-inf) (ng·h/mL)
Return type: number; implicit unit ng·h/mL.

// C[C@H](Nc1cc(Cl)nc2c1cnn2[C@@H]1O[C@H](COP(=O)(O)CP(=O)(O)O)[C@@H](O)[C@H]1O)c1ccccc1F [Ia (•3Na)] : AUC(0-inf) value = 20500

* * *

Assay: Oral exposure in cynomolgus monkeys, compound alone or with excipient in capsules; plasma by LC-MS/MS
Assay type: in vivo
Settings: male, cynomolgus monkey, plasma, po, 50 mg, oral, enteric capsule, dose 50 mg, with 195 mg sodium citrate, 6 mg SDS, non-fasted animal; read-out: Cmax
value_kind: Cmax (ng/mL)
# unit: ng/mL | format: bare number

Cmax measured on C[C@H](Nc1cc(Cl)nc2c1cnn2[C@@H]1O[C@H](COP(=O)(O)CP(=O)(O)O)[C@@H](O)[C@H]1O)c1ccccc1F [Ia (•3Na)] = 863

* * *

Assay: Oral exposure in cynomolgus monkeys, compound alone or with excipient in capsules; plasma by LC-MS/MS
Type: in vivo
Settings: male, cynomolgus monkey, plasma, po, 50 mg, oral, enteric capsule, dose 50 mg, with 227.5 mg sodium caprate, fasted; read-out: Cmax
value_kind: Cmax (ng/mL)
All answers are understood in ng/mL, so give the number only.

# Cmax (compound: `C[C@H](Nc1cc(Cl)nc2c1cnn2[C@@H]1O[C@H](COP(=O)(O)CP(=O)(O)O)[C@@H](O)[C@H]1O)c1ccccc1F` ) is 912

* * *

Assay: Oral exposure in cynomolgus monkeys, compound alone or with excipient in capsules; plasma by LC-MS/MS
Format: in vivo
Details: male, cynomolgus monkey, plasma, po, 50 mg, Table 3: dose 50 mg, dosed with 195 mg trisodium citrate and 3 mg SDS, enteric capsules; read-out: Cmax
value_kind: Cmax
Please report the result as a number followed by the unit.

Example entries begin here.
>  <smiles_notation>
C[C@H](Nc1cc(Cl)nc2c1cnn2[C@@H]1O[C@H](COP(=O)(O)CP(=O)(O)O)[C@@H](O)[C@H]1O)c1ccccc1F

>  <Cmax>
922 ng/mL

$$$$
>  <smiles_notation>
C[C@H](Nc1cc(Cl)nc2c1cnn2[C@@H]1O[C@H](COP(=O)(O)CP(=O)(O)O)[C@@H](O)[C@H]1O)c1ccc(F)cc1

>  <Cmax>
1320 ng/mL

$$$$

get_value(item= `C[C@H](Nc1nc(Cl)nc2c1cnn2[C@@H]1O[C@H](COP(=O)(O)CP(=O)(O)O)[C@@H](O)[C@H]1O)c1ccccc1` , readout=Cmax) returns 2530 ng/mL

* * *

Experiment: Oral exposure in cynomolgus monkeys, compound alone or with excipient in capsules; plasma by LC-MS/MS
Assay type: in vivo
Details: male, cynomolgus monkey, plasma, po, 10 mg, oral, enteric capsule, dose 10 mg, with 275 mg sodium phytate (Sigma-Aldrich), fasted; read-out: Cmax
value_kind: Cmax (µg/mL)
Numeric answer only, unit µg/mL assumed.

So for `C[C@H](Nc1nc(Cl)nc2c1cnn2[C@@H]1O[C@H](COP(=O)(O)CP(=O)(O)O)[C@@H](O)[C@H]1O)c1ccccc1` , the logged Cmax turned out to be 0.824
